- Target Desc: HaloTag-ING2 PHD (mouse Ing2 200-280)
- Test Description: peptide microarray binding signal (635 nm), min-max normalized on array (fraction of array maximum); higher = stronger binding
- Run Conditions: peptide region: Unmod H1 variant; binder concentration: 10 nM
Entries and their peptide microarray binding signal
// no unit string in output, number only

PKKAPVKPKAKSS [Unmod H1 variant P K K A P V K P K A K S S] = 0.00245
KKSTDHPKYSDMI [Unmod H1 variant K K S T D H P K Y S D M I] = 0.00269
LNKKASSVETKPG [Unmod H1 variant L N K K A S S V E T K P G] = 0.00776
ASGSFKLNKKAAS [Unmod H1 variant A S G S F K L N K K A A S] = 0.00233
SDMIVAAIQAEKN [Unmod H1 variant S D M I V A A I Q A E K N] = 0.00555

Dear colleague, I am looking for the recorded peptide microarray binding signal of the following binder: KAASGEAKPKAKK [Unmod H1 variant K A A S G E A K P K A K K]
0.00758

Dear colleague, I am looking for the recorded peptide microarray binding signal of the following binder: KKLKKATGASKKS [Unmod H1 variant K K L K K A T G A S K K S]
0.00161

Dear colleague, I am looking for the recorded peptide microarray binding signal of the following binder: KSSKNPKKPKTVK [Unmod H1 variant K S S K N P K K P K T V K]
0.00185
